Assign TGI to each entry below.
- System: SK-MEL-5 melanoma
- METHOD: NCI tumour cell line growth inhibition, 48 h

COMPOUND	TGI
O=C(Nc1ccccc1)c1cc2ccccc2c(N=Nc2ccc([N+](=O)[O-])cc2)c1O	> 100 µM
COc1cc2cc3c4cc(OC)c(OC)cc4cc[n+]3cc2cc1OC	> 100 µM
COc1ccc(/C=C2\CN(C)C/C(=C\c3ccc(OC)cc3)C2=O)cc1	> 100 µM
O=C(O)Cc1cc(=O)[nH]c2c1/C(=N/O)CCC2	> 100 µM
CN1CC(=O)N(C)c2ncn(Cc3ccccc3)c2C1=O	> 100 µM

Look up TGI for the entries below, preserving their order.
1. CC(C)(C)[Si](C)(C)Oc1cc(CO)cc2c1cc(=N)o[n+]2[O-]
2. CC(=O)c1cccc(C)c1C(=O)O
3. COc1cccc2c1CCc1c(-c3ccc(F)cc3)cc(-c3ccc4ccccc4n3)nc1-2
4. COc1cccc(/C=C/[N+](=O)[O-])c1
5. CCCCCCCCCCCCN1[C@H]2CCC[C@H]2C(O)[C@@H]2CCC[C@@H]21 (stereo partly specified)

Output line:
["> 10 µM", "> 100 µM", "> 100 µM", "22.5 µM", "> 100 µM"]

According to the records, this compound O=C1CCCCCCCCCCC1CCCCCBr (stereo unspecified) displays TGI of 31.2 µM

* * *

Assign TGI to each entry below.
- Test system: SF-539 CNS
- METHOD: NCI tumour cell line growth inhibition, 48 h

These solved cases illustrate the format of a correct answer.
COMPOUND	TGI
O=P1(Oc2ccc(Cl)cc2Cl)Oc2ccc3ccccc3c2-c2c(ccc3ccccc23)O1	43 µM
Cc1ccccc1NC(=O)c1c(C)oc2c1C(=O)c1ccccc1C2=O	> 68.5 µM
COc1ccc(/C(COc2ccc3c(=O)c(-c4ccccc4)coc3c2)=N\O)cc1	5.32 µM
COc1cccc(/C=C2\CCCc3ccccc3C2=O)c1	32 µM
Cc1n[nH]c(=O)n1/N=C/c1ccc(F)cc1	> 100 µM
N#CC1C(=O)SC2c3ccccc3C(=O)c3ccccc3C12 (stereo not drawn)	> 10 µM
CCOP(=O)(OCC)/C(=C/NC(=S)c1ccncc1)C(=O)OC	> 100 µM
CC(C)C[C@H](NC(=O)Cn1ccc(NCc2ccccc2)cc1=O)B(O)O	1.13 µM
O=C1C=CC(=O)C12CCc1ccccc12	> 100 µM
CC(O)c1cc2c(s1)C(=O)c1ccsc1C2=O (stereo not drawn)	0.158 µM

Look up TGI for the entries below, preserving their order.
1. O=C(O)C1CCCCC1C(=O)Nn1cnnc1 (stereo not drawn)
2. CCOC(=O)NC1C2CC(=O)OC(O2)C1OC(C)=O (stereo not drawn)
3. CC1(C)CC2=C(Sc3ccccc3N2)C(=O)C1C(=O)C(=O)Nc1cccc([N+](=O)[O-])c1 (stereo not drawn)
4. CC(C)(C)CC(C)(C)c1cc2c(O)c(c1)Cc1cc(C(C)(C)CC(C)(C)C)cc(c1O)Cc1cc(C(C)(C)CC(C)(C)C)cc(c1O)Cc1cc(C(C)(C)CC(C)(C)C)cc(c1O)Cc1cc(C(C)(C)CC(C)(C)C)cc(c1O)C2
5. COc1ccc2c3c([nH]c2c1[N+](=O)[O-])C(C)N(Cc1ccc([N+](=O)[O-])cc1)CC3 (stereo not drawn)

Output line:
> 100 µM
> 100 µM
> 100 µM
> 100 µM
> 100 µM

Look up TGI for the entries below, preserving their order.
1. COc1ccc(P2(=S)Oc3ccccc3-c3ccccc3O2)cc1
2. Cc1occc1C(=S)Nc1ccc(Cl)c(C(=O)OC(C(C)C)C(C)C)c1
3. CC(=C/C=C/C=C(C)\C=C\C=C(\C)C(=O)O)/C=C/C=C(/C)C(=O)O
4. COc1ccc(-c2oc(=O)ccc2-c2cc(OC)c(OC)c(OC)c2)cc1O

Output line:
1: 0.537 µM; 2: 35 µM; 3: > 100 µM; 4: > 29.9 µM

* * *

- System: SK-MEL-5 melanoma
- METHOD: NCI tumour cell line growth inhibition, 48 h
RECORDED_METRIC: TGI

These solved cases illustrate the format of a correct answer.
COMPOUND	TGI
CC[C@@H]1C(=O)OC[C@@H]1Cc1cncn1C	> 100 µM
O=C(O)C1CCCCC1C(=O)Nn1cnnc1 (stereo not drawn)	> 100 µM

Next compound, please.
According to the records, this compound "c1ccc(C2=NCCN2)c(C2=NCCN2)c1" displays TGI of > 100 µM

* * *

- System: HCT-15 colon
- METHOD: NCI tumour cell line growth inhibition, 48 h; in the data active = GI50 below about 0.43 µM; inactive = the rest
Outcome field: choose from y for active, n for inactive

Illustrative cases are given below, each with its answer.
MOLECULE	ASSIGNED_LABEL
COc1ccc(/C(COc2ccc3c(=O)c(-c4ccccc4)coc3c2)=N\O)cc1	y
COc1cc(N2CCC(N3CCN(C)CC3)CC2)ccc1Nc1ncnc(Nc2ccccc2S(=O)(=O)C(C)C)n1	n
C[C@@H](O)[C@H](NC(=O)N[C@@H](CC(N)=O)c1nc([C@@H](N)CO)no1)C(=O)O	n
Nc1c2c(c(O)c3c1=C(CO)C=N3)=NCCS2	y
O=C(O)c1ccc(Oc2nccc(-c3c(-c4ccc(F)cc4)ncn3C3CCNCC3)n2)cc1	n
CC1=C(C(=O)Nc2ccc(Cl)c(Cl)c2)C(c2cccc(Cl)c2)NC(=O)N1 (centres undefined)	n

Input line: Which result was noted for this molecule in the test: "COc1cc2c(cc1OC)-c1ccc3cc4c(cc3c1N(CCCn1ccnc1)C2)OCO4"
Output line: n

Input line: Which result was noted for this molecule in the test: "CNC(=O)c1ccc(N2C(=S)N(c3ccc(C#N)c(C(F)(F)F)c3)C(=O)C2(C)C)cc1F"
Output line: n

Input line: Which result was noted for this molecule in the test: "Cc1c2c(cc[n+]1Cc1ccccc1)c1ccc(OCc3ccccc3)cc1n2Cc1ccccc1"
Output line: n

* * *

- Tested on: OVCAR-4 ovarian
- METHOD: NCI tumour cell line growth inhibition, 48 h
RECORDED_METRIC: GI50

These solved cases illustrate the format of a correct answer.
COMPOUND	READOUT_VALUE
CC1=C(C(=O)Nc2ccc(Cl)c(Cl)c2)C(c2cccc(Cl)c2)NC(=O)N1 (stereo not given)	14.1 µM
COC(=O)c1cc2c3ccccc3n3c(=O)c4cc5ccccc5nc4c(n1)c23	> 100 µM
N#Cc1ccc2c(c1)C(=O)c1c-2n(CCCCl)c(=O)c2cc([N+](=O)[O-])ccc12	60.8 µM
O=C1NC(=O)C(c2ccccc2Cl)=C1Nc1cc(Cl)c(O)c(Cl)c1	13.7 µM

Next compound, please.
According to the records, this compound "O=c1cc(N2CCN(CCCCCOc3cc(O)c4c(=O)cc(-c5ccccc5)oc4c3)CC2)c2ccccc2o1" displays GI50 of 62.7 µM

* * *

Assign TGI to each entry below.
- System: OVCAR-8 ovarian
- METHOD: NCI tumour cell line growth inhibition, 48 h

These solved cases illustrate the format of a correct answer.
COMPOUND	READOUT_VALUE
N#Cc1ccc2c(c1)C(=O)c1c-2n(CCCCl)c(=O)c2cc([N+](=O)[O-])ccc12	> 100 µM
CC1=C[C@]2(O)C(=O)[C@H](C)C[C@H]3[C@@H](CC[C@@](C)(O)/C=C\2C1=O)C3(C)C	46.9 µM
NC[C@H]1Nc2ccccc2[C@@H](O)C1O (stereo not given in full)	> 100 µM
COC(=O)C1=C(O)c2cc(-c3ccccc3)c(-c3ccccc3)c(C#N)c2NC(=O)C1	> 100 µM
CC12CCC(C(Nc3cc(C(F)(F)F)cc(C(F)(F)F)c3)C1=O)C2(C)C (stereo not given)	> 100 µM

Look up TGI for the entries below, preserving their order.
1. CN1CC(=O)N(C)c2ncn(Cc3ccccc3)c2C1=O
2. CC(=O)N1C/C(=C/c2ccc(Cl)cc2)C(=O)/C(=C/c2ccc(Cl)cc2)C1
3. CCOC(=O)NC1C2CC(=O)OC(O2)C1OC(C)=O (stereo not given)
4. COC(=O)[C@]12CC[C@H]3CC[C@H]([C@H]31)[C@H](c1ccccc1)N2
5. O=C1O/C(=C\c2ccccc2)N(c2ccccc2)C1=O

Output line:
1: > 100 µM; 2: 2.17 µM; 3: > 100 µM; 4: 37 µM; 5: > 100 µM

* * *

- Tested on: SR leukemia
- METHOD: NCI tumour cell line growth inhibition, 48 h; in the data active = GI50 below about 0.43 µM; inactive = the rest
Outcome field: choose from active, inactive

Illustrative cases are given below, each with its answer.
MOLECULE	ASSIGNED_LABEL
Cc1ccc(Cc2cnc(NC(=O)/C=C/c3cccc(C)c3)s2)cc1	active
COc1cccc(/C=C/[N+](=O)[O-])c1	inactive
COc1cc2c(cc1OC)-c1ccc3cc4c(cc3c1N(CCCn1ccnc1)C2)OCO4	inactive
CC1=C(C(=O)Nc2ccc(Cl)c(Cl)c2)C(c2cccc(Cl)c2)NC(=O)N1 (stereo not drawn)	inactive
COc1cc(-c2ccc(-c3ccc(C(=N)N)nc3)s2)cc(OC)c1OC	inactive
C=C(C)[C@@H]1CC[C@]2(C(=O)O)CC[C@]3(C)[C@H](CC[C@@H]4[C@@]5(C)CCC(NC(=O)c6cccc(OC(C)=O)c6OC(C)=O)C(C)(C)[C@@H]5CC[C@]43C)[C@@H]12 (stereo partly drawn)	inactive
Cc1nc2sc(C(=O)Nc3cccc4ccccc34)c(N)c2cc1C(O)c1ccccc1 (stereo not drawn)	active
C/C(=N\Nc1cc(C)c2ccccc2n1)c1ccccn1	active

Switching to the query record.
Input line: Which result was noted for this molecule in the test: "CC(C)C[C@H](NC(=O)Cn1ccc(NCc2ccccc2)cc1=O)B(O)O"
Output line: active
